# Test system: Escherichia coli
# experimental protocol: Minimum inhibitory concentration against Escherichia coli
# Type: functional
Consider the cut-off 2 µg/mL. If the recorded MIC is strictly smaller, the label is y; if not, the label is n.

QUERY: For this molecule, is MIC lower than 2 µg/mL? CC[C@H]1OC(=O)[C@H](C)[C@H]2OC3(CCN(C(=O)c4ccccn4)CC3)O[C@](C)(C[C@@H](C)CN(C)[C@H](C)[C@@H](O)[C@]1(C)O)[C@H](O[C@@H]1O[C@H](C)C[C@H](N(C)C)[C@H]1O)[C@H]2C
RESULT: y

QUERY: Is MIC strictly under 2 µg/mL for the entry CC[C@H]1OC(=O)[C@H](C)[C@H]2OC3(CCN(CCc4ccc5ccccc5n4)CC3)O[C@](C)(C[C@@H](C)CN[C@H](C)[C@@H](O)[C@]1(C)O)[C@H](O[C@@H]1O[C@H](C)C[C@H](N(C)C)[C@H]1O)[C@H]2C ?
RESULT: y

QUERY: Identify whether the molecule CC[C@H]1OC(=O)[C@H](C)[C@H]2OC3(CCN(C(=O)c4cccc(OC)c4)CC3)O[C@](C)(C[C@@H](C)CN[C@H](C)[C@@H](O)[C@]1(C)O)[C@H](O[C@@H]1O[C@H](C)C[C@H](N(C)C)[C@H]1O)[C@H]2C records MIC below 2 µg/mL.
RESULT: n

QUERY: State whether 2 µg/mL exceeds MIC recorded for CC[C@H]1OC(=O)[C@H](C)[C@H]2OC3(CCN(C(=O)c4ccccc4)CC3)O[C@](C)(C[C@@H](C)CN[C@H](C)[C@@H](O)[C@]1(C)O)[C@H](O[C@@H]1O[C@H](C)C[C@H](N(C)C)[C@H]1O)[C@H]2C .
RESULT: y

QUERY: Threshold test, MIC < 2 µg/mL: CC[C@H]1OC(=O)[C@H](C)[C@H]2OC3(CCN(C(=O)c4ccc5ccccc5n4)CC3)O[C@](C)(C[C@@H](C)CN(C)[C@H](C)[C@@H](O)[C@]1(C)O)[C@H](O[C@@H]1O[C@H](C)C[C@H](N(C)C)[C@H]1O)[C@H]2C
RESULT: n

QUERY: A record lists CC[C@H]1OC(=O)[C@H](C)[C@H]2OC3(CCN(CCc4ccccc4)CC3)O[C@](C)(C[C@@H](C)CN[C@H](C)[C@@H](O)[C@]1(C)O)[C@H](O[C@@H]1O[C@H](C)C[C@H](N(C)C)[C@H]1O)[C@H]2C . Is its MIC below 2 µg/mL?
RESULT: y

QUERY: MIC under 2 µg/mL? Item: CC[C@H]1OC(=O)[C@H](C)[C@H]2OC3(CCN(C(=O)c4cncc(Cl)c4Cl)CC3)O[C@](C)(C[C@@H](C)CN[C@H](C)[C@@H](O)[C@]1(C)O)[C@H](O[C@@H]1O[C@H](C)C[C@H](N(C)C)[C@H]1O)[C@H]2C
RESULT: n

QUERY: I'd appreciate it if you could check whether CC[C@H]1OC(=O)[C@H](C)[C@@H](O[C@H]2C[C@@](C)(OC)[C@@H](O)[C@H](C)O2)[C@H](C)[C@@H](O[C@@H]2O[C@H](C)C[C@H](N(C)C)[C@H]2O)[C@](C)(O)C[C@@H](C)CN(C)[C@H](C)[C@@H](O)[C@]1(C)O [AZITHROMYCIN] has MIC smaller than 2 µg/mL.
RESULT: y

---

# System: Escherichia coli
# experimental protocol: Minimum inhibitory concentration against Escherichia coli
# Format: functional
observed property: MIC (µg/mL)
Kindly provide the numeric value in µg/mL only, without the unit symbol.

QUERY: What does the data say about its MIC? Entry: CC[C@H]1OC(=O)[C@H](C)[C@H]2OC3(CCN(CCc4ccnc5ccccc45)CC3)O[C@](C)(C[C@@H](C)CN[C@H](C)[C@@H](O)[C@]1(C)O)[C@H](O[C@@H]1O[C@H](C)C[C@H](N(C)C)[C@H]1O)[C@H]2C
RESULT: 1.56

QUERY: Quick one: MIC of CC[C@H]1OC(=O)[C@H](C)[C@H]2OC3(CCN(C(=O)c4cnccn4)CC3)O[C@](C)(C[C@@H](C)CN[C@H](C)[C@@H](O)[C@]1(C)O)[C@H](O[C@@H]1O[C@H](C)C[C@H](N(C)C)[C@H]1O)[C@H]2C ?
RESULT: 1.56

QUERY: Quick check: MIC of CC[C@H]1OC(=O)[C@H](C)[C@H]2OC3(CCN(CCc4ccccc4OC)CC3)O[C@](C)(C[C@@H](C)CN[C@H](C)[C@@H](O)[C@]1(C)O)[C@H](O[C@@H]1O[C@H](C)C[C@H](N(C)C)[C@H]1O)[C@H]2C ?
RESULT: 0.1

QUERY: Fill in the blank: the reported MIC of CC[C@H]1OC(=O)[C@H](C)[C@H]2OC3(CCN(Cc4ccccn4)CC3)O[C@](C)(C[C@@H](C)CN(C)[C@H](C)[C@@H](O)[C@]1(C)O)[C@H](O[C@@H]1O[C@H](C)C[C@H](N(C)C)[C@H]1O)[C@H]2C is ____.
RESULT: 0.2

---

Please provide measured ED50 for the entries that follow.
# Tested on: Staphylococcus aureus
# experimental protocol: Effective dose required to inhibit Staphylococcus aureus intraperitoneal (IP) infection model
# Assay type: functional
Please give a number only; it is taken to be in mg/kg.

QUERY: Record request: ED50 value, item CC[C@H]1OC(=O)[C@H](C)[C@@H](O[C@H]2C[C@@](C)(OC)[C@@H](O)[C@H](C)O2)[C@H](C)[C@@H](O[C@@H]2O[C@H](C)C[C@H](N(C)C)[C@H]2O)[C@](C)(O)C[C@@H](C)CN(C)[C@H](C)[C@@H](O)[C@]1(C)O
RESULT: 4.1

QUERY: GET /values?readout=ED50&item= CC[C@H]1OC(=O)[C@H](C)[C@H]2OC3(CCN(C(=O)c4cccn4C)CC3)O[C@](C)(C[C@@H](C)CN[C@H](C)[C@@H](O)[C@]1(C)O)[C@H](O[C@@H]1O[C@H](C)C[C@H](N(C)C)[C@H]1O)[C@H]2C
RESULT: 19

QUERY: What ED50 value was documented for this molecule, CC[C@H]1OC(=O)[C@H](C)[C@H]2OC3(CCN(C(=O)c4cnc5ccccc5c4)CC3)O[C@](C)(C[C@@H](C)CN[C@H](C)[C@@H](O)[C@]1(C)O)[C@H](O[C@@H]1O[C@H](C)C[C@H](N(C)C)[C@H]1O)[C@H]2C ?
RESULT: 13

---

# Tested on: Escherichia coli
# experimental protocol: Minimum inhibitory concentration against Escherichia coli
# Format: functional
observed property: MIC (µg/mL)
Write the number in µg/mL without appending the unit.

QUERY: Please look up its MIC: CC[C@H]1OC(=O)[C@H](C)[C@H]2OC3(CCN(C(=O)c4ccc(-c5ccccc5)cc4)CC3)O[C@](C)(C[C@@H](C)CN[C@H](C)[C@@H](O)[C@]1(C)O)[C@H](O[C@@H]1O[C@H](C)C[C@H](N(C)C)[C@H]1O)[C@H]2C
RESULT: 6.25

QUERY: Bench note: what MIC did CC[C@H]1OC(=O)[C@H](C)[C@H]2OC3(CCN(C(=O)c4occc4C)CC3)O[C@](C)(C[C@@H](C)CN[C@H](C)[C@@H](O)[C@]1(C)O)[C@H](O[C@@H]1O[C@H](C)C[C@H](N(C)C)[C@H]1O)[C@H]2C show?
RESULT: 1.56

---

# Test system: Escherichia coli
# experimental protocol: Minimum inhibitory concentration against Escherichia coli
# Type: functional
Please go through the items and note down their MIC.
State the result as a value with its unit after it.

QUERY: Requested read-out: MIC. Entry: CC[C@H]1OC(=O)[C@H](C)[C@H]2OC3(CCN(CCc4ccc(OC)cc4)CC3)O[C@](C)(C[C@@H](C)CN(C)[C@H](C)[C@@H](O)[C@]1(C)O)[C@H](O[C@@H]1O[C@H](C)C[C@H](N(C)C)[C@H]1O)[C@H]2C
RESULT: 0.39 µg/mL

QUERY: Give the measured MIC of CC[C@H]1OC(=O)[C@H](C)[C@H]2OC3(CCN(CCc4ccc(C#N)cc4)CC3)O[C@](C)(C[C@@H](C)CN(C)[C@H](C)[C@@H](O)[C@]1(C)O)[C@H](O[C@@H]1O[C@H](C)C[C@H](N(C)C)[C@H]1O)[C@H]2C .
RESULT: 0.39 µg/mL

QUERY: May I ask what MIC has been recorded for CC[C@H]1OC(=O)[C@H](C)[C@H]2OC3(CCN(CCc4cccc(OC)c4)CC3)O[C@](C)(C[C@@H](C)CN(C)[C@H](C)[C@@H](O)[C@]1(C)O)[C@H](O[C@@H]1O[C@H](C)C[C@H](N(C)C)[C@H]1O)[C@H]2C ?
RESULT: 0.2 µg/mL

QUERY: // MIC lookup, key: CC[C@H]1OC(=O)[C@H](C)[C@H]2OC3(CCN(C(=O)c4ccccc4)CC3)O[C@](C)(C[C@@H](C)CN(C)[C@H](C)[C@@H](O)[C@]1(C)O)[C@H](O[C@@H]1O[C@H](C)C[C@H](N(C)C)[C@H]1O)[C@H]2C
RESULT: 3.13 µg/mL
